Some compounds, each annotated with its measured RAM network inhibition.
# method_notes: RAM signaling pathway blockade in yeast – S. cerevisiae, Pdr1DBD-CYC8 efflux-inhibited sensitized strain, primary screen (AID 1298);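 also: 0% = DMSO untreated cells without growth and 100% = 10 µM 1-NA-PP1 full growth; higher means more yeast growth rescued from 5-FOA killing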
# test_context: S. cerevisiae cbk1-as DSE1-URA3 strain, 5-FOA growth OD615, 2 d; at 50 µM; hits give high values
property: RAM network inhibition (%)

{"columns": ["compound", "property", "numeric_value"],
 "data": [
  ["CC(C)N1CCc2c(sc(NC(=O)c3ccc(S(=O)(=O)N4CCOCC4)cc3)c2C(N)=O)C1", "RAM network inhibition", 1.28],
  ["COc1ccccc1S(=O)Cc1ccc(C(=O)NCc2ccccc2Cl)o1 (configuration not stated)", "RAM network inhibition", 4.64],
  ["COc1ccc(-n2nc3c(c2NC(=O)C24CC5CC(CC(C5)C2)C4)CS(=O)C3)cc1 (configuration not stated)", "RAM network inhibition", -1.31],
  ["O=C(CSc1ncccn1)NCCc1ccccc1", "RAM network inhibition", 2.5],
  ["COc1ccc(C2C3=C(CCCC3=O)Nc3nc(SCc4ccc(C(=O)O)cc4)nn32)cc1OC (configuration not stated)", "RAM network inhibition", 3.48],
  ["Cc1onc(-c2ccccc2Cl)c1C(=O)Nc1ccc(OCC(=O)N2CCOCC2)cc1", "RAM network inhibition", 5.11],
  ["COc1cccc(C(=O)NCCn2ccc3ccccc32)c1", "RAM network inhibition", 2.48]
]}

----------
# method_notes: viability gain of MRP-1-high H69AR cells under doxorubicin, pilot screen, MRP-1 activator project, CellTiter-Glo, duplicate (AID 807);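 also: compound pretreatment 18-22 h then 72 h combined with doxorubicin; 0% = doxorubicin alone and 100% = vehicle without doxorubicin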
# test_context: H69AR viability with doxorubicin, CellTiter-Glo luminescence; at 10 µM; hits give high values

{"columns": ["compound", "units_of_measure", "viability increase"],
 "data": [
  ["N#Cc1c2n(c3c(-c4ccccc4)ncnc13)CCC2", "%", -2.25],
  ["COc1ccc(C2C3=C(Nc4ncnn42)c2ccccc2CCC3)cc1 (stereo unspecified)", "%", -1.45],
  ["Nc1cccc(C(=O)Nc2ccc3nc(-c4cccnc4)[nH]c3c2)c1", "%", -1.88],
  ["Cc1sc2nc(SCC(=O)NCc3ccco3)n(C)c(=O)c2c1C", "%", -4.96],
  ["COC(=O)C1=CN(CC2CCCO2)C=C(C(=O)OC)C1c1ccsc1 (stereo unspecified)", "%", -4.97],
  ["CC1(C)CC(=O)C(C=NCCCN2CCOCC2)=C(O)C1", "%", -0.36],
  ["CC1=C(C(=O)OC2CCCCC2)C(c2ccco2)n2ncnc2N1 (stereo unspecified)", "%", -1.43],
  ["CCCOC(=O)C1=C(C)NC2=C(C(=O)CC(C)(C)C2)C1c1ccc(N(C)C)cc1 (stereo unspecified)", "%", -2.59],
  ["O=C(NCc1ccc2c(c1)OCO2)c1ccc(NC(=O)C2CCCO2)cc1 (stereo unspecified)", "%", -2.17],
  ["COc1cccc(-n2nnc3c(=O)n(CC(=O)NCC4CCCO4)cnc32)c1 (stereo unspecified)", "%", 0.22],
  ["CC(/C=C/c1ccccc1)=N/O", "%", 0.26],
  ["C=CCn1c(C)c(C(C)=O)c(SC)nc1=S", "%", -1.99],
  ["COc1ccccc1N(CC(=O)Nc1ccc2c(c1)OCO2)S(=O)(=O)c1ccccc1", "%", -0.47],
  ["O=C(O)CCCC(=O)Nc1ccccc1Br", "%", -1.61],
  ["Cc1nn(C)c(C)c1NS(=O)(=O)c1ccccc1", "%", -0.34],
  ["c1coc(-c2nc(-c3ccco3)c(-c3ccco3)nc2-c2ccco2)c1", "%", -2.54]
]}
